Below, each of the compounds is paired with its reported T/C value.
System: L1210 leukemia ip in BDF1 mice, survival T/C
measurementDescription: NCI In Vivo Anticancer Drug Screen. Data for tumor model L1210 Leukemia (intraperitoneal) in B6D2F1 (BDF1) mice
studyConditions: endpoint: mean survival time; dose: 200.0 mg/kg/injection; schedule: Q04DX003 (ip); vehicle: other; higher = longer survival
Toxic doses and inconclusive results are not listed.
reportedEndpoint: T/C

> print(dat)
                                   compound                        experimentalsystem            result
1            Cc1cc(C(=O)O)c(C(C)C)cc1C(=O)O  L1210 leukemia ip in BDF1 mice, survival T/C   98 % of control
2                 O=C(O)CCCCCNC(=O)C(F)(F)F  L1210 leukemia ip in BDF1 mice, survival T/C  103 % of control
3               Cc1cccc2cc3ccc4ccccc4c3cc12  L1210 leukemia ip in BDF1 mice, survival T/C  101 % of control
4  CN1CCC(c2ccccc2)c2ccccc21 (stereo not given)  L1210 leukemia ip in BDF1 mice, survival T/C  120 % of control
5  CC12C(=O)OC(=O)C1C1C=CC2C1 (stereo not given)  L1210 leukemia ip in BDF1 mice, survival T/C  102 % of control

----------
Test system: L1210 leukemia ip in BDF1 mice, survival T/C
measurementDescription: NCI In Vivo Anticancer Drug Screen. Data for tumor model L1210 Leukemia (intraperitoneal) in B6D2F1 (BDF1) mice
studyConditions: endpoint: mean survival time; dose: 100.0 mg/kg/injection; schedule: Q01DX009 (ip); vehicle: saline
Inconclusive results and toxic doses are left out. Cut-off read from the data, not from the text of the source: active = T/C of 150% or more; inactive = T/C below 125%.
Outcomes: Yes (active), No (inactive)

> print(dat)
                                 molecule  cat
1          CN(CO)c1nc(N(C)CO)nc(N(C)CO)n1  Yes
2      Cc1[nH]c(=O)[nH]c(=O)c1/C=C/C(=O)O   No
3        O=C(O)C1CCSS1 (stereo not drawn)   No
4                      CN(C)c1n[nH]c(N)n1   No
5     COc1ccc(C2(O)c3ccccc3-c3ccccc32)cc1   No
6                    O=C(O)Cn1nnc2ccccc21  Yes
7  C#CC(C)(C)OCC(O)CCl (stereo not drawn)   No
8                       COCCOCCOCCOCCOCCN   No

----------
Test system: L1210 leukemia ip in BDF1 mice, survival T/C
measurementDescription: NCI In Vivo Anticancer Drug Screen. Data for tumor model L1210 Leukemia (intraperitoneal) in B6D2F1 (BDF1) mice
studyConditions: endpoint: mean survival time; dose: 400.0 mg/kg/injection; schedule: Q01DX009 (ip); vehicle: saline; higher = longer survival
Protocol: The antitumor activity of compounds was measured in mice bearing transplantable tumors. Survival or tumor size were measured and the results are expressed as the measurement made in the treated group (T) divided by the measurement made in the vehicle treated control group (C). The tumor model used in this assay is L1210 Leukemia (intraperitoneal) in B6D2F1 (BDF1) mice
Toxic doses and inconclusive results are not listed.
reportedEndpoint: T/C

> print(dat)
                       smilesstructure                        experimentalsystem  reportedendpoint            result
1            Nc1ccc(N=Nc2ccccc2)c(N)c1  L1210 leukemia ip in BDF1 mice, survival T/C               T/C   95 % of control
2  COc1ccc(C2(O)c3ccccc3-c3ccccc32)cc1  L1210 leukemia ip in BDF1 mice, survival T/C               T/C   95 % of control
3           c1cc[n+](CC[n+]2ccccc2)cc1  L1210 leukemia ip in BDF1 mice, survival T/C               T/C   90 % of control
4   Cc1[nH]c(=O)[nH]c(=O)c1/C=C/C(=O)O  L1210 leukemia ip in BDF1 mice, survival T/C               T/C  106 % of control
5                   NCCc1cc(O)c(O)cc1O  L1210 leukemia ip in BDF1 mice, survival T/C               T/C   86 % of control
